Each record here notes measured EC50.
# system.name: T1, human c-Met (HGFR), full length, on the cell surface (human, UniProt P08581 25-1390)
# T1 construct: Endogenous c-Met on human tumor cell lines MKN45, NCI-H596, PC-3 and HepG2; also called hepatocyte growth factor receptor; mesenchymal-epithelial transition factor
# assay.protocol: flow cytometry, NCI-H596 cells pre-incubated with 50 ng/mL HGF
Number only, in µg/mL; omit the unit.

binder	observed.measurement
mAb3e (antibody, human IgG1, kappa, V domains shown, Humanized IgG1 kappa, HC-41C, from wt/41C-chi-mAb3; also called humanized HC-41C antibody mAb3e) VH: QVQLQESGAEVKKPGASVKVSCKASGYTFTDYYLNWVRQACGQGLEWMGLIFPGNDKTEYSEKFKGRVTMTRDTSTSTVYMELSSLRSEDTAVYYCSGGDYGGFVYWGQGTLVTVSS VL: DIQMTQSPSSLSASVGDRVTITCGASENIYGALNWYQQKPGKAPKLLIYGATNLADGVPSRFSGSGSGTDFTLTISSLQPEDVATYYCQNVLSSPLTFGSGTKLEIKR	0.14

Query: Suppose we examine the binder mAb3c (antibody, human IgG1, kappa, V domains shown, Humanized IgG1 kappa, HC-41C, from wt/41C-chi-mAb3; also called humanized HC-41C antibody mAb3c) VH: QVQLVQSGAEVKKPGASVKVSCKASGYTFTDYYLNWVRQACGQGLEWMGLIFPGNDKTEYSEKFKGRVTLTTDTSISTAYMELSSLTSDDTALYYCSGGDYGGFVYWGQGTLVTVSS VL: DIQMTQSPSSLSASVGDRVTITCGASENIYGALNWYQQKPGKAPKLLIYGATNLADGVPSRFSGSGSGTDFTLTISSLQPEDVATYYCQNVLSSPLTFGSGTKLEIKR ; what EC50 value has been reported?
Response: 0.11
